- PROTOCOL NOTES: RM-133 plasma and tumor concentration in nude mice after the xenograft experiment (second part), LC-MS/MS
- Assay type: in vivo, nu/nu nude mice
- CONDITION SET: nu/nu nude, mouse, plasma, sc, 60 mg/kg, 12 h after single s.c. 60 mg/kg (0.1 mL), group B: not previously exposed to the drug
MEASURED METRIC: concentration at 12 h (ng/mL)
Use ng/mL as the unit, but write only the number.

Challenge: Which concentration at 12 h value is on record for C#C[C@]1(O)CC[C@H]2[C@@H]3CC[C@H]4C[C@H](O)[C@@H](N5CCN(C(=O)[C@@H]6CCCN6C(=O)c6ccc7ccccc7n6)CC5)C[C@]4(C)[C@H]3CC[C@@]21C ?
Response given: 91
